Source of measurements: patent US20220177583A1

Molecular target: T1, human CLDN6, endogenously expressed on cancer cell lines (human, UniProt P56747 1-220)
T1 construct: also called Endogenous CLDN6+; CLDN6 on ARK2, OVCA429, UMUC4 cells
T1 sequence: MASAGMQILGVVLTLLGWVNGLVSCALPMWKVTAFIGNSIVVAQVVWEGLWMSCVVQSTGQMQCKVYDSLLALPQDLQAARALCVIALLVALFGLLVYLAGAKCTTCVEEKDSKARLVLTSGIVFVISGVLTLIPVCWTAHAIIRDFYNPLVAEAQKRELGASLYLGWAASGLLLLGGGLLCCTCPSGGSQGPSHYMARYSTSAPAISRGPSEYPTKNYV
Assay: FACS dose curve, labelled mAb, ARK2 cells
measured property: pEC50
pEC50 here is simply -log10 of the concentration when that concentration is written in mol/L.

Below are worked cases with known answers.
{"binder": "AB7 (antibody, V domains shown, Full-length IgG (ExpiCHO)) VH: EVQLQQSGPELVKPGASMKISCKASGYSFTGYTMNWVKQSHGKNLEWIGLINPYNGGTNYNQKFKGKATLTVDKSSSTAYMELLSLTSEDSAVYYCARGVYDYDGFTYWGQGTLVTVSA VL: QIVLTQSPAIMSASLGDRVTMTCTASSSVSSSYLHWYQQKPGSSPKLWIYSTSNLASGVPARFSGSGSGTSYSLTISSMEAEDAATYYCHQYHRSPPTFGSGTKLEIK", "measured property": "pEC50", "recorded value": 6.45}
{"binder": "AB5 (antibody, V domains shown, Full-length IgG (ExpiCHO)) VH: EVQLQQSGPELVKPGASVKMSCKASGYIFTHYIMHWVKQKPGQGLEWIGCINPYNDGTKYNEKFKGKATLTSDKSSSTAYMELSSLTSEDSAVYYCARYYGYPYYSMDYWGQGTSVTVSS VL: DVLMTQTPLSLPVSLGDQPSISCRSSQSIVHSNGNTYLDWYLQKPGQSPKLLIYKVSNRFSGVPDRFSGSGSGTDFTLKISRVEAEDLGVYYCFQGSHVPFTFGSGTRLEIK", "measured property": "pEC50", "recorded value": 8.10}

// field: pEC50; key: AB8 (antibody, V domains shown, Full-length IgG (ExpiCHO)) VH: QVQLQQSGAELARPGASVKMSCKASGYTFTTYTMHWLKQRPGQGLEWIGYINPRSGYSNYNQKFKDKATLTADKSSNTAYMQLNTLTSEDSKVYYCSRGELGGFAYWGQGTLVTVSA VL: DVVMTQTPLSLPVSLGDQASISCRSSQSLVHSDGNTYLYWYLQKPGQSPKLLIYKVSNRFSGVPDRFSGSGSGTDFTLKISRVEAEDLGVYFCSQSTHVPYTFGGGTKLEIK ; value = 5.94
